Hey, just so you know, these numbers are from patent US20050261332A1.

pKi: −log10 of the molar value.
Can you tell me pKi for the items I'm about to list?

Prompt: Report its pKi with GHS-R (Homo sapiens) as the test system: CCN(CC)CCCS(=O)(=O)N[C@H](CCc1ccccc1)C(=O)NCc1ccc(-c2ccccc2CCNC(=O)NC)cc1
Sequence (Q92847 whole entry, species assumed): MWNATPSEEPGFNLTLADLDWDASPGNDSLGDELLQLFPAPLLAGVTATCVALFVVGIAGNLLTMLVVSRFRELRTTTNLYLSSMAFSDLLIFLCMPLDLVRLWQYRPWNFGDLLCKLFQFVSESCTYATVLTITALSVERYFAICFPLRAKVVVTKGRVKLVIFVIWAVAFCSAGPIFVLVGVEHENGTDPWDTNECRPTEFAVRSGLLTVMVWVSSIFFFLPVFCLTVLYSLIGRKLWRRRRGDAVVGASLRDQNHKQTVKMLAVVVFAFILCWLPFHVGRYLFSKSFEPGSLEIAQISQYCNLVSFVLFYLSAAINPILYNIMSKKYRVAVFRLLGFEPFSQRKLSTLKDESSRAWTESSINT
Response: > 7.00

Prompt: Report its pKi with GHS-R (Homo sapiens) as the test system: CCN(CC)CCCS(=O)(=O)N[C@H](CCc1ccccc1)C(=O)NCc1ccc(-c2ccccc2CNC(=O)NC)cc1
Response: 6.00 to 7.00

Prompt: Report its pKi with GHS-R (Homo sapiens) as the test system: CCN(CC)CCS(=O)(=O)N[C@H](CCc1ccccc1)C(=O)c1ccc(-c2ccccc2CNC(=O)OC(C)(C)C)cc1
Response: 6.00 to 7.00

Prompt: Report its pKi with GHS-R (Homo sapiens) as the test system: CC(C)N(C)CCS(=O)(=O)N[C@H](COCc1ccccc1)C(=O)N1CCC2(CC1)CN(S(C)(=O)=O)c1ccccc12
Response: 6.00 to 7.00

Prompt: Report its pKi with GHS-R (Homo sapiens) as the test system: COCCCS(=O)(=O)N[C@H](COCc1ccccc1)C(=O)N1CCC2(CC1)CN(S(C)(=O)=O)c1ccccc12
Response: 6.00 to 7.00

Prompt: Report its pKi with GHS-R (Homo sapiens) as the test system: CCN(CC)CCCS(=O)(=O)N[C@H](CCc1ccccc1)C(=O)c1ccc(-c2ccccc2CN)cc1
Response: 6.00 to 7.00

Prompt: Report its pKi with GHS-R (Homo sapiens) as the test system: CCN(CC)CCS(=O)(=O)N[C@H](CCc1ccccc1)C(=O)c1ccc(-c2ccccc2CNC(=O)NCCO)cc1
Response: > 7.00
